- test_description: Plasma concentration in Swiss mouse at 50 mg/kg, po after 8 hrs
- Assay type: ADME, organism-based
- Parameters: dose 50 mg/kg, route oral
# Lookup of reported concentration at 8 h keyed by entry
Give a bare numeral; the unit µM is implied.

compound | units_label | measured_result
NC(=O)c1cccc(C(O)(c2ccc(Cl)cc2)c2cccnc2)c1 (racemic) | µM | 15.9

# concentration at 8 h of CC[C@@H]([C@H](C)O)n1ncn(-c2ccc(N3CCN(c4ccc(OC[C@@H]5CO[C@@](Cn6cncn6)(c6ccc(F)cc6F)C5)cc4)CC3)cc2)c1=O = 11.1

---

- test_description: Blood Clearance in Sprague-Dawley rat at 4.2 mg/kg, iv
- Assay type: ADME, organism-based
- Design: dose 4.2 mg/kg, route intravenous
- condition_info: whole blood
measured_metric: clearance
# do not omit the unit; it follows the number

# clearance of NC(=O)c1cccc(C(O)(c2ccc(Cl)cc2)c2cccnc2)c1 (racemic) = 18.9 mL/min/kg

---

- test_description: Apparent volume of distribution at steady state in Sprague-Dawley rat at 4.2 mg/kg, iv
- Format: ADME, organism-based
- Parameters: dose 4.2 mg/kg, route intravenous
- condition_info: in vivo, read-out: Vdss(app)
measured_metric: Vd (L/kg)
Give a bare numeral; the unit L/kg is implied.

# Vd of NC(=O)c1cccc(C(O)(c2ccc(Cl)cc2)c2cccnc2)c1 (racemic) = 3.6

---

- test_description: Kinetic solubility of the compound at pH 6.5 by nephelometric analysis
- Type: physicochemical
- condition_info: buffer, read-out: Kinetic_solubility
measured_metric: solubility kinetic (µg/mL)
Give a bare numeral; the unit µg/mL is implied.

# solubility kinetic of NC(=O)c1cccc(C(O)(c2ccc(Cl)cc2)c2cccnc2)c1 (racemic) = 50

# solubility kinetic of OC(c1ccc(Cl)cc1)(c1cccnc1)c1ccc(Cl)cc1F (racemic) = 1.6

# solubility kinetic of CC(C)Oc1ccc(C(O)(c2ccc(C(F)(F)F)cc2)c2cccnc2)cc1 (racemic) = 1.6

---

- test_description: Plasma concentration in Swiss mouse at 50 mg/kg, po after 24 hrs
- Format: ADME, organism-based
- Set-up: dose 50 mg/kg, route oral
measured_metric: concentration at 24 h (nM)
Give a bare numeral; the unit nM is implied.

compound | concentration at 24 h / nM
CC[C@@H]([C@H](C)O)n1ncn(-c2ccc(N3CCN(c4ccc(OC[C@@H]5CO[C@@](Cn6cncn6)(c6ccc(F)cc6F)C5)cc4)CC3)cc2)c1=O | 3800

# concentration at 24 h of NC(=O)c1cccc(C(O)(c2ccc(Cl)cc2)c2cccnc2)c1 (racemic) = 60

---

- test_description: Plasma concentration in Swiss mouse at 10 mg/kg, po after 8 hrs
- Assay type: ADME, organism-based
- Parameters: dose 10 mg/kg, route oral
measured_metric: concentration at 8 h (nM)
Give a bare numeral; the unit nM is implied.

# concentration at 8 h of NC(=O)c1cccc(C(O)(c2ccc(Cl)cc2)c2cccnc2)c1 (racemic) = 400

---

# Lookup of reported pIC50 keyed by entry
- measured_target: CYP3A4/5 (Homo sapiens, UniProt P08684+P20815)
- test_description: Inhibition of CYP3A4/5 in human liver microsomes
- Assay type: ADME, Microsome
Entry type: numeric. Quantity: pIC50, the -log10 of concentration in molar units.

compound | measured_metric | measured_result
CC(C)Oc1ccc(C(O)(c2ccc(C(F)(F)F)cc2)c2cccnc2)cc1 (racemic) | pIC50 | 5.85
OC(c1ccc(Cl)cc1)(c1cccnc1)c1ccc(Cl)cc1F (racemic) | pIC50 | 6.05
CC(C)Oc1ncc(C(O)(c2cccnc2)c2ccc(Cl)cc2F)cn1 (racemic) | pIC50 | 5.36

# pIC50 of OC(c1ccc(Cl)cc1)(c1cccnc1)c1ccccc1Cl (racemic) = 6.22

# pIC50 of OC(c1ccc(C(F)(F)F)cc1)(c1cccnc1)c1ccc(Cl)cc1F (racemic) = 5.85

# pIC50 of CC(C)Oc1ccc(C(O)(c2ccc(Cl)cc2)c2cccnc2)cc1 (racemic) = 5.72

# pIC50 of OC(c1ccc(Cl)cc1)(c1cccnc1)c1cncnc1 (racemic) = 5.30
